system: Providencia rettgeri; assay: MIC by NCCLS broth microdilution, 1100 Japanese clinical isolates 1997-1998; type: cell-based; conditions: Providencia rettgeri (n=12)
measurement.type: MIC Range

Query string: Which MIC Range value is on record for N[C@@H]1[C@H]2CN(c3nc4c(cc3F)c(=O)c(C(=O)O)cn4-c3ccc(F)cc3F)C[C@@H]12 ?
Result string: 0.125 to 8 µg/mL

Query string: // query: NC1CCN(c2nc3c(cc2F)c(=O)c(C(=O)O)cn3-c2ccc(F)cc2F)C1 (centres unmarked)
Result string: 0.063 to 8 µg/mL

Query string: Note, next up: C[C@@H]1CN(c2c(F)c(N)c3c(=O)c(C(=O)O)cn(C4CC4)c3c2F)C[C@H](C)N1
Result string: 0.125 to 16 µg/mL

Query string: # iterate: C[C@H]1COc2c(N3CCN(C)CC3)c(F)cc3c(=O)c(C(=O)O)cn1c23
Result string: 0.125 to 8 µg/mL

Query string: Also CO/N=C1\CN(c2nc3c(cc2F)c(=O)c(C(=O)O)cn3C2CC2)CC1CN (racemic) , if possible.
Result string: 0.063 to 16 µg/mL

###

system: Haemophilus influenzae; experiment: MIC by NCCLS reference broth microdilution, 450 respiratory tract pathogens; format: cell-based; settings: Haemophilus influenzae, β-lactamase positive (n = 20); read-out: MIC90
measurement.type: MIC90 (µg/mL)
# number only, unit µg/mL dropped from output

Query string: Look up MIC90 with Haemophilus influenzae for this molecule: CO/N=C(\C(=O)N[C@@H]1C(=O)N2C(C(=O)O)=C(COC(N)=O)CS[C@H]12)c1ccco1 [Cefuroxime, cefuroxime]
Result string: 1

Query string: Now try C[C@@H]1CN(c2c(F)c(N)c3c(=O)c(C(=O)O)cn(C4CC4)c3c2F)C[C@H](C)N1 [Sparfloxacin, sparfloxacin] .
Result string: 0.03

Query string: Same question, N[C@@H]1[C@H]2CN(c3nc4c(cc3F)c(=O)c(C(=O)O)cn4-c3ccc(F)cc3F)C[C@@H]12 [Trovafloxacin, trovafloxacin] this time
Result string: 0.06

###

test system: Morganella morganii; test: MIC by NCCLS broth microdilution, 1100 Japanese clinical isolates 1997-1998; format: cell-based; settings: Morganella morganii (n=40); read-out: MIC50
measurement.type: MIC50 (µg/mL)
Give the value in µg/mL but do not write µg/mL after it.

Query string: Fill in the blank: the reported MIC50 of CO/N=C1\CN(c2nc3c(cc2F)c(=O)c(C(=O)O)cn3C2CC2)CC1CN (racemic) is ____.
Result string: 0.063

Query string: Further, for N[C@@H]1[C@H]2CN(c3nc4c(cc3F)c(=O)c(C(=O)O)cn4-c3ccc(F)cc3F)C[C@@H]12 ?
Result string: 0.25

Query string: // next record C[C@H]1COc2c(N3CCN(C)CC3)c(F)cc3c(=O)c(C(=O)O)cn1c23
Result string: 0.032

Query string: Also NC1CCN(c2nc3c(cc2F)c(=O)c(C(=O)O)cn3-c2ccc(F)cc2F)C1 (stereo not shown) ?
Result string: 0.063

###

test system: Staphylococcus aureus; assay: MIC by agar macrodilution (NCCLS), 373 Gram positive isolates, Athens 1998; assay type: cell-based; conditions: Methicillin-susceptible Staphylococcus aureus (n = 85); read-out: MIC90
measurement.type: MIC90 (µg/mL)
Provide only the numeric value, understood in µg/mL.

Query string: For Cc1c(F)c(N2CCNC(C)C2)cc2c1c(=O)c(C(=O)O)cn2C1CC1 (stereo not drawn) , what is its reported MIC90?
Result string: 0.25

Query string: Now consider N[C@@H]1[C@H]2CN(c3nc4c(cc3F)c(=O)c(C(=O)O)cn4-c3ccc(F)cc3F)C[C@@H]12 and answer again.
Result string: 0.125

Query string: // repeat for CO/N=C1\CN(c2nc3c(cc2F)c(=O)c(C(=O)O)cn3C2CC2)CC1CN (racemic) and report
Result string: 0.125

Query string: Moving on to CC[C@H]1OC(=O)[C@H](C)[C@@H](O[C@H]2C[C@@](C)(OC)[C@@H](O)[C@H](C)O2)[C@H](C)[C@@H](O[C@@H]2O[C@H](C)C[C@H](N(C)C)[C@H]2O)[C@](C)(OC)C[C@@H](C)C(=O)[C@H](C)[C@@H](O)[C@]1(C)O
Result string: 1

Query string: Another compound to check: CC1COc2c(N3CCN(C)CC3)c(F)cc3c(=O)c(C(=O)O)cn1c23 (stereo not drawn)
Result string: 1

Query string: Proceed to CC[C@H]1OC(=O)[C@H](C)[C@@H](O[C@H]2C[C@@](C)(OC)[C@@H](O)[C@H](C)O2)[C@H](C)[C@@H](O[C@@H]2O[C@H](C)C[C@H](N(C)C)[C@H]2O)[C@](C)(O)C[C@@H](C)CN(C)[C@H](C)[C@@H](O)[C@]1(C)O
Result string: 2
